Reference source: paper PMC4864240

Biological target: BtabCSP1 (Bemisia tabaci, UniProt D6N3A3)
Experiment: biochemical
Assay type: binding
Details: BtabCSP1 Ki, competitive binding vs 1-NPN; three replicates ± SD
Observed Property: Ki (µM)

CC(=O)/C=C/C1=C(C)CCCC1(C)C [β-Ionone]	32.1
CC(C)=CCC/C(C)=C/CO [Geraniol]	39.6

###

pKi by entry:
Target: UniProt D6N3A3
Assay: biochemical
Type: binding
Settings: BtabCSP1 Ki (u.d.), u.d. = binding constant not calculated; IC50>100 μM
pKi: −log10 of the molar value.

Some solved entries appear below for comparison.
CCCCCCCCCC(=O)O	< 4.00
O=Cc1ccccc1	< 4.00
CC(=O)c1ccc(C)cc1C	< 4.00

Now for a further compound.
Give the measured pKi for `CC(=O)CCC=C(C)C`
< 4.00

###

Target: BtabCSP2 (Bemisia tabaci, UniProt H6UKS9)
Sequence (H6UKS9 22-131): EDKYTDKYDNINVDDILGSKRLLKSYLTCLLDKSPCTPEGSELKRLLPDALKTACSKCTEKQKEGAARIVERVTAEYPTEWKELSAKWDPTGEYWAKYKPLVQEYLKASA
Observed Property: pIC50
// field semantics: pIC50 = negative decimal log of concentration (mol/L)

Answer with reported pIC50 of `CCCCCC(C=O)=Cc1ccccc1`
4.95

###

Target: BtabCSP2 (Bemisia tabaci)
Experiment: biochemical
Assay type: binding
pKi: −log10 of the molar value.
Reported values of pKi for individual entries

O=Cc1ccccc1	< 4.00
CC(=O)CCC=C(C)C	< 4.00
CC(=O)c1ccc(C)cc1C	< 4.00
CCCCCCCCCC(=O)O	< 4.00
CCCCCC	< 4.00
CC(C)=CCC/C(C)=C/CO	< 4.00

Now for a further molecule.
Hello, please tell me recorded pKi for this one: `CC(=O)/C=C/C1=C(C)CCCC1(C)C`
< 4.00

###

Molecular target: UniProt A0A097GUB5
Assay: biochemical
Format: binding
Details: u.d. = binding constant not calculated; IC50>100 μM; read-out: BtabCSP3 Ki (u.d.)
Each item that follows carries a reported Ki.

CCCCCC=O [n-Hexaldehyde]	> 100 µM
CCCCCCCCCCCCCC(C)=O [2-Pentadecanone]	> 100 µM
C=CC(C)=CCC=C(C)C [Ocimene]	> 100 µM
CCCCCOC(C)=O [Amyl acetate]	> 100 µM

# evaluate next
For the molecule CCCCCCO [1-Hexanol] , report Ki.
> 100 µM

###

Target: BtabCSP2 (Bemisia tabaci, UniProt H6UKS9)
Sequence (H6UKS9 22-131): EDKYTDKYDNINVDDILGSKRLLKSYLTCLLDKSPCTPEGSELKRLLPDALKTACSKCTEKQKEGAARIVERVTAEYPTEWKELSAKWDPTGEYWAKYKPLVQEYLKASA
Assay: biochemical
Assay type: binding
Conditions: u.d. = binding constant not calculated; IC50>100 μM; read-out: BtabCSP2 Ki (u.d.)
Observed Property: Ki

Illustrative cases are given below, each with its answer.
CCCCCCCCCCCCCCC	> 100 µM
COC(=O)c1ccccc1O [Methyl salicylate]	> 100 µM
C=CCc1ccc(O)c(OC)c1	> 100 µM
CCCCCOC(C)=O [Amyl acetate]	> 100 µM
CCCCCC(C)=O	> 100 µM
C=CC(=C)CCC=C(C)C	> 100 µM

Item CC1=CCC2CC1C2(C)C (stereo not shown) : provide Ki
> 100 µM

###

Target: BtabCSP3 (Bemisia tabaci, UniProt A0A097GUB5)
Sequence (A0A097GUB5 21-138): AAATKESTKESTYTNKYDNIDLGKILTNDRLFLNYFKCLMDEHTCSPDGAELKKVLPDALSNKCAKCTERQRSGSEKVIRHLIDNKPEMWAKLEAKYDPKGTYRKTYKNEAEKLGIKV
Assay: biochemical
Format: binding
Conditions: direct titration, Scatchard plot; read-out: binding constant of 1-NPN to CSP3
Observed Property: Kd (µM)
// return numeric value only (unit: µM, not printed)

Give a short answer stating reported Kd for `c1ccc(Nc2cccc3ccccc23)cc1` .
15.3

###

Molecular target: BtabCSP1 (Bemisia tabaci, UniProt D6N3A3)
Test: biochemical
Type: binding
Details: BtabCSP1 Ki (u.d.)
pKi: −log10 of the molar value.
Observed Property: pKi

State, in one line, measured pKi of `CCCCCC`
< 4.00

###

Here's a batch of compounds along with measured pIC50 for BtabCSP3 (Bemisia tabaci).
Kindly note that pIC50 refers to -log10 of the concentration in mol/L and answer with the value alone.

CCCCC/C=C\C/C=C\CCCCCCCC(=O)O	4.31

Continue with the compound presented below.
Write down pIC50 measured for item `CCCCCC(C=O)=Cc1ccccc1`
5.19

###

Molecular target: BtabCSP2 (Bemisia tabaci, UniProt H6UKS9)
Assay: biochemical
Assay type: binding
Conditions: competitive binding vs 1-NPN; three replicates ± SD; read-out: BtabCSP2 Ki
Observed Property: pKi
# pKi: negative log10 of molar concentration; output just the value

Please indicate pKi recorded for `CCCCCC(C=O)=Cc1ccccc1`
4.99

###

Listed here are compounds together with their documented pKi.
Biological target: BtabCSP1 (Bemisia tabaci)
Assay: biochemical
Assay type: binding
Conditions: competitive binding vs 1-NPN; three replicates ± SD; read-out: BtabCSP1 Ki
Formally, pKi is defined as -log10 of the concentration c, with c in mol/L.

O=C(O)/C=C/c1ccccc1	4.12

Give the value of pKi reported for the following: `CCCCCC(C=O)=Cc1ccccc1`
4.90

Tell me measured pKi for `CCCCC/C=C\C/C=C\CCCCCCCC(=O)O` please.
5.24

###

Target: BtabCSP2 (Bemisia tabaci, UniProt H6UKS9)
Observed Property: Kd (µM)
Just the number please, in µM, no unit attached.

Given the compound c1ccc(Nc2cccc3ccccc23)cc1 [1-NPN] , write its reported Kd.
20.8

###

A collection of compounds and their measured pIC50
Target: BtabCSP1 (Bemisia tabaci, UniProt D6N3A3)
Sequence (D6N3A3 20-126): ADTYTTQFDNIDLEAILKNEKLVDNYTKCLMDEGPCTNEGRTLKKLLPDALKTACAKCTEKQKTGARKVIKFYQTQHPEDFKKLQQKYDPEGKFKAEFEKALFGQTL
Test: biochemical
Type: binding
pIC50: −log10 of the molar value.

Worked cases, pIC50 given:
CC(=O)/C=C/C1=C(C)CCCC1(C)C [β-Ionone]	4.02 to 4.84
CC(=O)CCC=C(C)C [6-Methyl-5-hepten-2-one]	4.02 to 4.84
CCCCCCCCCC(=O)O [Decanoic acid]	4.02 to 4.84
CC(C)=CCC/C(C)=C/CO [Geraniol]	4.02 to 4.84

Let us move to another entry and its pIC50.
Read the entry CN1COCN(Cc2cnc(Cl)s2)/C1=N\[N+](=O)[O-] [Thiamethoxam] and write its reported pIC50.
< 4.30

###

Target: BtabCSP2 (Bemisia tabaci, UniProt H6UKS9)
Sequence (H6UKS9 22-131): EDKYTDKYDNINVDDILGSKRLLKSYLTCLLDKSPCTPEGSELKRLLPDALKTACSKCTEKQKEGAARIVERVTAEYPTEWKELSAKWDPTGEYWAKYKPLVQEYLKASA
Assay: biochemical
Format: binding
Conditions: competitive binding vs 1-NPN; three replicates ± SD; listed as α-pentyl-cinnamaldehyde; read-out: BtabCSP2 Ki
Observed Property: pKi
Quick note: pKi values are minus log10 of concentrations in mol/L.

Input CCCCCC(C=O)=Cc1ccccc1 [α-Pentyl-cinnamaldehyde] , output reported pKi.
4.99

###

# key: entry, value: pKi
Target: BtabCSP1 (Bemisia tabaci)
Experiment: biochemical
Type: binding
Settings: competitive binding vs 1-NPN; three replicates ± SD; read-out: BtabCSP1 Ki
# log scale: pKi equals minus log10 of the concentration in mol/L

Answered examples (2):
CCC/C=C/CO [Trans-2-hexen-1-ol]	4.34
CCCCCC(C)=O	4.26

Provide only the value of recorded pKi for `CCCCCCCCCCCC(=O)O`
4.45

Given `CCCCCCO` , respond with its pKi.
4.33

Tell me measured pKi for COC(=O)c1ccccc1O [Methyl salicylate] please.
4.22

Give pKi for the following compound: C=C(C)[C@H]1CC=C(C)CC1 [R(+)-Limonene]
4.32

For the compound `Cc1cccc(C)c1` , report pKi.
4.26

Provide one value: measured pKi of CC1(C)[C@H]2CC[C@]1(C)C(=O)C2 [(1S)-(-)-Camphor]
4.29
